Test system: HT-29 cell line
run_description: SRB assay, antiproliferative activity against HT-29
Format: cell-based, human
run_conditions: SRB, tested concentration range 1–100 µg/mL
result_type: cytotoxic / antiproliferative effect against HT-29 (in words)

[[record]]
compound_smiles = "CCCCCCCCOc1ccc([C@@H]2CC(=O)c3c(O)cc(OCCCCCCCC)cc3O2)cc1"
observed_measurement = "no effect"

[[record]]
compound_smiles = "CCCCCCCCCOc1ccc([C@@H]2CC(=O)c3c(O)cc(OCCCCCCCCC)cc3O2)cc1"
observed_measurement = "no effect"

[[record]]
compound_smiles = "CCCCCCOc1ccc([C@@H]2CC(=O)c3c(O)cc(OCCCCCC)cc3O2)cc1"
observed_measurement = "no effect"


----------
Tested on: 3T3-L1 cell line
run_description: SRB assay, antiproliferative activity against 3T3-L1
Type: cell-based, mouse
run_conditions: SRB, tested concentration range 1–100 µg/mL
result_type: cytotoxic / antiproliferative effect against 3T3-L1 (in words)

These solved cases illustrate the format of a correct answer.
[[record]]
compound_smiles = "CCCCCCCCCOc1cc(O)c2c(c1)O[C@H](c1ccc(O)cc1)CC2=O"
target_system = "3T3-L1 cell line"
observed_measurement = "cytotoxic activity"

[[record]]
compound_smiles = "CCCCCCOc1ccc([C@@H]2CC(=O)c3c(O)cc(OCCCCCC)cc3O2)cc1"
target_system = "3T3-L1 cell line"
observed_measurement = "no effect"

[[record]]
compound_smiles = "CCCCCCCCCOc1ccc([C@@H]2CC(=O)c3c(O)cc(OCCCCCCCCC)cc3O2)cc1"
target_system = "3T3-L1 cell line"
observed_measurement = "no effect"

[[record]]
compound_smiles = "CCCCCCCCCCCOc1cc(O)c2c(c1)O[C@H](c1ccc(O)cc1)CC2=O"
target_system = "3T3-L1 cell line"
observed_measurement = "cytotoxic activity"


List the reported cytotoxic / antiproliferative effect against 3T3-L1 (in words) of each molecule below.
1. CCCCCCCOc1cc(O)c2c(c1)O[C@H](c1ccc(O)cc1)CC2=O
2. CCCCCCCCOc1cc(O)c2c(c1)O[C@H](c1ccc(O)cc1)CC2=O
3. CCCCCCOc1cc(O)c2c(c1)O[C@H](c1ccc(O)cc1)CC2=O

(A)
cytotoxic activity
cytotoxic activity
cytotoxic activity

----------
Tested on: HT-29 cell line
run_description: SRB assay, antiproliferative activity against HT-29
Format: cell-based, human
run_conditions: SRB, tested concentration range 1–100 µg/mL
result_type: cytotoxic / antiproliferative effect against HT-29 (in words)

These solved cases illustrate the format of a correct answer.
[[record]]
molecule = "CCCCCCCCCCCOc1ccc([C@@H]2CC(=O)c3c(O)cc(OCCCCCCCCCCC)cc3O2)cc1 [Compound 10a, 7,4’-di-O-undecylnaringenin]"
observed_measurement = "no effect"

[[record]]
molecule = "CCCCCCCOc1cc(O)c2c(c1)O[C@H](c1ccc(O)cc1)CC2=NO [Compound 3b, 7-O-heptylnaringenin oxime]"
observed_measurement = "cytotoxic effects"

[[record]]
molecule = "CCCCCCCOc1ccc([C@@H]2CC(=O)c3c(O)cc(OCCCCCCC)cc3O2)cc1 [Compound 4a, 7,4’-di-O-heptylnaringenin]"
observed_measurement = "no effect"

[[record]]
molecule = "CCCCCCCCOc1cc(O)c2c(c1)O[C@H](c1ccc(O)cc1)CC2=NO [Compound 5b, 7-O-octylnaringenin oxime]"
observed_measurement = "cytotoxic effects"


Read the next record carefully.
(Q) If you can, please state the reported cytotoxic / antiproliferative effect against HT-29 (in words) value of CCCCCCCCCOc1cc(O)c2c(c1)O[C@H](c1ccc(O)cc1)CC2=NO [Compound 7b, 7-O-nonylnaringenin oxime] .
(A) cytotoxic effects
